Where do the numbers come from? From patent US20210246128A1.

- ASSAY INFO: Lipophilicity assay (octanol/buffer Log D)
- CONDITION PARAMETERS: octanol / sodium phosphate buffer pH 7.4
Provide the recorded Log D @ pH 7.40 Mean for the entries that follow.
// no unit, no text: just the number

Task: Sample COc1ccc(-c2ccc3ncc(-c4nnco4)c(NCCCN4CCOCC4)c3c2)cc1 [Compound 43] — what was its Log D @ pH 7.40 Mean?
Output: 3.26

Task: Need Log D @ pH 7.40 Mean of COc1ccc(-c2ccc3ncc(-c4nnco4)c(NCCCn4ccnc4)c3c2)cc1 [Compound 18] , thanks.
Output: 2.48

Task: Can you share its Log D @ pH 7.40 Mean? I mean this compound: COCCc1ccc(OCC(O)CNC(C)C)cc1 (stereo not shown) [Metoprolol, reference compound]
Output: −0.29

Task: Can you share its Log D @ pH 7.40 Mean? I mean this compound: Nc1ccc(-c2ccc3ncc(-c4nnco4)c(NCCCn4ccnc4)c3c2)cc1 [Compound 20]
Output: 2.56

----------
Can you tell me melting point for the items I'm about to list?
A complete answer gives the number and then names the unit.

Task: Endpoint output: melting point of `Cc1ccc(-c2ccc3ncc(-c4nnco4)c(NCCN4CCOCC4)c3c2)cc1[N+](=O)[O-]` . Value?
Output: 222 °C

Task: Looking for the measured melting point of `COc1ccc(-c2ccc3ncc(-c4nnco4)c(NCCN4CCOCC4)c3c2)cc1OC` , can you help?
Output: 116 °C

Task: // returns reported melting point for input `N#Cc1ccc(-c2ccc3ncc(-c4nnco4)c(NCCN4CCOCC4)c3c2)cc1`
Output: 190 °C

Task: What value of measured melting point is listed for `COc1cccc(-c2ccc3ncc(-c4nnco4)c(NCCCn4ccnc4)c3c2)c1` ?
Output: 96 °C

Task: Fill blank: measured melting point of the compound `COc1ccc(-c2ccc3ncc(-c4nnco4)c(NCCN4CCOCC4)c3c2)cc1` is ____.
Output: 156 °C

----------
- ASSAY INFO: Caco-2 permeability (21 day culture of Caco-2 cell monolayer)
- Assay type: in vitro ADME
- CONDITION PARAMETERS: human, Caco-2, pH 7.4, Caco-2; read-out: B to A % Recovery
OUTCOME MEASURE: recovery at 120 min, 10 μM
Write the figure, then the unit, nothing else.

Task: So what's the measured recovery at 120 min, 10 μM for this one? `c1cncc(-c2ccc3ncc(-c4nnco4)c(NCCCn4ccnc4)c3c2)c1`
Output: 74.2%

Task: I have this compound here, `Nc1ccc(-c2ccc3ncc(-c4nnco4)c(NCCCn4ccnc4)c3c2)cc1` , and I need its recorded recovery at 120 min, 10 μM.
Output: 91.7%

Task: Field request: recovery at 120 min, 10 μM | item: CC(C)NCC(O)COc1cccc2ccccc12 (stereo not shown) [Propranolol, reference compound]
Output: 72.7%

Task: Need recovery at 120 min, 10 μM of `COc1ccc(-c2ccc3ncc(-c4nnco4)c(NCCCN4CCOCC4)c3c2)cc1` , thanks.
Output: 58.5%

Task: Record request: recovery at 120 min, 10 μM value, item `COc1ccc(-c2ccc3ncc(-c4nnco4)c(NCCCn4ccnc4)c3c2)cn1`
Output: 92%

Task: Any idea what recovery at 120 min, 10 μM was measured for `COc1ccc(-c2ccc3ncc(-c4nnco4)c(NCCCn4ccnc4)c3c2)cc1` ?
Output: 44.2%

Task: // lookup recovery at 120 min, 10 μM for `Nc1ccc(-c2ccc3ncc(-c4nnco4)c(NCCCn4ccnc4)c3c2)cn1`
Output: 77.7%

----------
- ASSAY INFO: Solubility assay (pH 7.4 pION buffer, UV)
- Type: physicochemical
- CONDITION PARAMETERS: pH 7.4 pION buffer, aqueous buffer, kinetic from dmso stock; pH 7.4 buffer, 18 hours incubation; read-out: Avg. Solubility (μg/mL) at pH 7.4
For each record, write down the corresponding solubility at 18 h.
Form entry: value (µg/mL) — number only.

Task: Quick check: solubility at 18 h of `COc1ccc(-c2ccc3ncc(-c4nnco4)c(NCCCn4ccnc4)c3c2)cn1` ?
Output: 27.9

Task: Query: solubility at 18 h; subject: `c1cncc(-c2ccc3ncc(-c4nnco4)c(NCCCn4ccnc4)c3c2)c1`
Output: 44

Task: Given CC(C(=O)O)c1ccc(-c2ccccc2)c(F)c1 (centres unmarked) [Flurbiprofen, reference compound] , state its recorded solubility at 18 h.
Output: 54

Task: Look up solubility at 18 h for this compound: `Nc1ccc(-c2ccc3ncc(-c4nnco4)c(NCCCn4ccnc4)c3c2)cn1`
Output: 27.2

Task: Using the record for CCCSc1ccc2nc(NC(=O)OC)[nH]c2c1 [Albendazole, reference compound] , report its solubility at 18 h.
Output: 3.31

----------
Assignment: determine reported Papp B→A at 120 min, 10 μM for the given compounds.
- ASSAY INFO: Caco-2 permeability (21 day culture of Caco-2 cell monolayer)
- Assay type: in vitro ADME
- CONDITION PARAMETERS: human, pH 7.4; Caco-2, 10 μM, 120 min; read-out: Papp Basal to Apical
Answer format: numeric, ×10⁻⁶ cm/s implied, no suffix.

Task: # input compound: `COc1ccc(-c2ccc3ncc(-c4nnco4)c(NCCCN4CCOCC4)c3c2)cc1` ; wanted: its Papp B→A at 120 min, 10 μM
Output: 11

Task: I am curious: what Papp B→A at 120 min, 10 μM value has been reported for `Nc1ccc(-c2ccc3ncc(-c4nnco4)c(NCCCn4ccnc4)c3c2)cc1` ?
Output: 44.2

Task: For the compound shown here, `COc1ccc(-c2ccc3ncc(-c4nnco4)c(NCCCn4ccnc4)c3c2)cn1` , give the reported Papp B→A at 120 min, 10 μM.
Output: 31.5

Task: Suppose we examine the compound `Nc1ccc(-c2ccc3ncc(-c4nnco4)c(NCCCn4ccnc4)c3c2)cn1` ; what Papp B→A at 120 min, 10 μM value has been reported?
Output: 27.4

Task: Requested read-out: Papp B→A at 120 min, 10 μM. Entry: `COc1ccc(-c2ccc3ncc(-c4nnco4)c(NCCCn4ccnc4)c3c2)cc1`
Output: 11.6

Task: Need Papp B→A at 120 min, 10 μM, item CC(C)NCC(O)COc1cccc2ccccc12 (stereo not shown) [Propranolol, reference compound]
Output: 13.3

Task: Consider the compound `c1cncc(-c2ccc3ncc(-c4nnco4)c(NCCCn4ccnc4)c3c2)c1` and give its measured Papp B→A at 120 min, 10 μM.
Output: 38.3

----------
- TARGET DESC: recombinant human TopI (HTopI) (Homo sapiens)
- Sequence (P11387 1-765): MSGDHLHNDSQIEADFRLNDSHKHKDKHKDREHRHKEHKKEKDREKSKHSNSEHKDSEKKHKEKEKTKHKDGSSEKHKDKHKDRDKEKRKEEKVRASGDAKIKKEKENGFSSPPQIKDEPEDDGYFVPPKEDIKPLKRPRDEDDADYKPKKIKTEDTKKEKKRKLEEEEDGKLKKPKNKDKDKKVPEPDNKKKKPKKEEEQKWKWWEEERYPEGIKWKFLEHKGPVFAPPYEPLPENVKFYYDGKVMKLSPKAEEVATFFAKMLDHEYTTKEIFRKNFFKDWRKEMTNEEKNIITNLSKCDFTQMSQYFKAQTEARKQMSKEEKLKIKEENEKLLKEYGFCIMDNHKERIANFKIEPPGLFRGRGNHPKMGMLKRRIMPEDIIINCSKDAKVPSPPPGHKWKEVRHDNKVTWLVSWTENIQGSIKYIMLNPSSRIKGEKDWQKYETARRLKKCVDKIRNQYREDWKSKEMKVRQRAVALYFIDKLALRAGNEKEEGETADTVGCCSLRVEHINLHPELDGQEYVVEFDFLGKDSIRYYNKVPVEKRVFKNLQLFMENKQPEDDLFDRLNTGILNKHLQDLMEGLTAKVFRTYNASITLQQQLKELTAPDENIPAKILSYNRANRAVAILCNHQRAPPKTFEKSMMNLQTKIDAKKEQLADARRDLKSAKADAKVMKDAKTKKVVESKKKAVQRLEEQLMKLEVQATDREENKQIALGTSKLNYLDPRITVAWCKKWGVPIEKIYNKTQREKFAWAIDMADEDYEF
- ASSAY INFO: Gel based plasmid DNA relaxation assay with recombinant TopI (in vitro)
- Type: biochemical
- CONDITION PARAMETERS: recombinant human TopI, at 10 μM; read-out: In vitro inhibition at 10 μM
Lab note: anything with inhibition at 10 µM at or over 40% counts as 1; the rest go in -1.

Task: Record `CCOC(=O)c1cnc2ccc(-c3ccc(OC)cc3)cc2c1NCCCn1ccnc1` ; criterion: inhibition at 10 µM no lower than 40%. Met?
Output: -1

Task: Determine whether measured inhibition at 10 µM meets or exceeds 40% for `COc1ccc(-c2ccc3ncc(-c4nnco4)c(NCCN4CCOCC4)c3c2)cc1`
Output: 1

Task: Reported inhibition at 10 µM reaches at least 40% for `Brc1ccc2ncc(-c3nnco3)c(NCCCn3ccnc3)c2c1` ?
Output: -1

Task: Is reported inhibition at 10 µM greater than or equal to 40% here: `COc1ccc(-c2ccc3ncc(-c4nnc(C)o4)c(NCCN4CCOCC4)c3c2)cc1`
Output: 1

Task: Hi team, for `CNc1c(-c2nnco2)cnc2ccc(-c3ccc(OC)cc3)cc12` , is the recorded inhibition at 10 µM at or above 40%?
Output: -1

Task: Could you verify whether the entry `COc1ccc(-c2ccc3ncc(-c4nnc(C)o4)c(NCCCn4ccnc4)c3c2)cc1` shows inhibition at 10 µM of no less than 40%?
Output: 1

Task: API: above_or_equal(metric=inhibition at 10 µM, cutoff=40%) for item `CCOC(=O)c1cnc2ccc(Br)cc2c1NCCCn1ccnc1`
Output: -1

Task: Determine whether this compound has inhibition at 10 µM no lower than 40%: `COc1ccc(-c2ccc3ncc(-c4nnco4)c(NCCCn4ccnc4)c3c2)c(OC)c1`
Output: 1
